# Target Or System: CYP1B1 (Homo sapiens, UniProt Q16678)
# Construct: expressed in transfected cells
# Method Description: EROD assay in inducible CYP1B1 cell line
# Format: cell-based
Observable: activity as CYP1B1 inhibitor, in words

Observe how each entry below is paired with its result.
What reported activity as CYP1B1 inhibitor, in words corresponds to COc1ccc(/C=C/c2cc[n+](C)cn2)c(OC)c1 [Compound 7] on CYP1B1 (Homo sapiens, UniProt Q16678)?
poor activity

What reported activity as CYP1B1 inhibitor, in words corresponds to N#CCOc1ccc(/C=C/c2ccncn2)cc1 [Compound 13] on CYP1B1 (Homo sapiens, UniProt Q16678)?
potent

What reported activity as CYP1B1 inhibitor, in words corresponds to COc1ccc(/C=C/c2ccncc2)c(OC)c1 [Compound 6] on CYP1B1 (Homo sapiens, UniProt Q16678)?
potent

What reported activity as CYP1B1 inhibitor, in words corresponds to COc1ccc(/C=C/c2ccncn2)c(OC)c1 [GL433] on CYP1B1 (Homo sapiens, UniProt Q16678)?
potent

// next entry
What reported activity as CYP1B1 inhibitor, in words corresponds to COc1ccc(/C=C/c2ccccc2)c(OC)c1 [Compound 1] on CYP1B1 (Homo sapiens, UniProt Q16678)?
poor activity

----------
# Target Or System: pooled human liver microsomes (pHLMs) (Homo sapiens)
# Sequence (P05177 2-516): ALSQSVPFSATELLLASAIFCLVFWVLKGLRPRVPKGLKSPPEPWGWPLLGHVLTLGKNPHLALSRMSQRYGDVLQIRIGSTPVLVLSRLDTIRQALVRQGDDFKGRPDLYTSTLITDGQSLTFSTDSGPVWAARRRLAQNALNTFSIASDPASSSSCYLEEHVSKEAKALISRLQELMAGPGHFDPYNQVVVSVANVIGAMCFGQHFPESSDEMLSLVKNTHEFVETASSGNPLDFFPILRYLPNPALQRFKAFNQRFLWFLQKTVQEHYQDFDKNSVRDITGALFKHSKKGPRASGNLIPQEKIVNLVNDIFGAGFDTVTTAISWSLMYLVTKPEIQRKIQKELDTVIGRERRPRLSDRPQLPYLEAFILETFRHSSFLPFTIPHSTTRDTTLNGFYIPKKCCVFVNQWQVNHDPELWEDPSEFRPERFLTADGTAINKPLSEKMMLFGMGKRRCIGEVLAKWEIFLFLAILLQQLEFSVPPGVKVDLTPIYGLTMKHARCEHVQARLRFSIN
# Method Description: EROD counterscreen in pooled human liver microsomes
# Format: biochemical
# Test Context: human, microsomes, Table 1; read-out: hLM IC50
Task for the reader: assign each of the following compounds its reported pIC50.
Numbers only, as −log10 of the molar value.

Entry COc1ccc(/C=C/c2ccncn2)c(OC)c1 : reported pIC50 = ?
5.96

Further cases:
Entry N#CCOc1ccc(-c2nc(OCC#N)c3ccccc3n2)cc1 : reported pIC50 = ?
5.40

----------
# Target Or System: pooled human liver microsomes (pHLMs) (Homo sapiens, UniProt P05177)
# Method Description: EROD counterscreen in pooled human liver microsomes
# Type: biochemical
# Test Context: selectivity index
Rule for this label: Condition met means SI 1B1:HLM is less than 0.1; Condition not met means SI 1B1:HLM is at least 0.1.

# TODO verify SI 1B1:HLM < 0.1 strictly for this molecule: COc1ccc(-c2csc(-c3cccnc3)n2)c(OC)c1
Condition met

# TODO verify SI 1B1:HLM < 0.1 strictly for this molecule: COc1ccc(-c2csc(-c3ccc(O)cc3)n2)c(OC)c1
Condition not met

Further cases:
# TODO verify SI 1B1:HLM < 0.1 strictly for this molecule: c1ccc(-c2nc(-c3cccnc3)cs2)nc1
Condition not met

# TODO verify SI 1B1:HLM < 0.1 strictly for this molecule: Oc1ccc(-c2csc(-c3cccnc3)n2)cc1
Condition met

# TODO verify SI 1B1:HLM < 0.1 strictly for this molecule: COc1ccc(-c2nc(-c3ccc(F)c(C(F)(F)F)c3)cs2)c(OC)c1
Condition not met

# TODO verify SI 1B1:HLM < 0.1 strictly for this molecule: COc1cc(OC)cc(-c2nc(-c3cccc(C(F)(F)F)c3)cs2)c1
Condition not met

# TODO verify SI 1B1:HLM < 0.1 strictly for this molecule: Oc1ccc(-c2csc(-c3ccccn3)n2)cc1
Condition not met

----------
# Target Or System: CYP1B1 (Homo sapiens)
# Construct: expressed in transfected cells
# Sequence (Q16678 1-543): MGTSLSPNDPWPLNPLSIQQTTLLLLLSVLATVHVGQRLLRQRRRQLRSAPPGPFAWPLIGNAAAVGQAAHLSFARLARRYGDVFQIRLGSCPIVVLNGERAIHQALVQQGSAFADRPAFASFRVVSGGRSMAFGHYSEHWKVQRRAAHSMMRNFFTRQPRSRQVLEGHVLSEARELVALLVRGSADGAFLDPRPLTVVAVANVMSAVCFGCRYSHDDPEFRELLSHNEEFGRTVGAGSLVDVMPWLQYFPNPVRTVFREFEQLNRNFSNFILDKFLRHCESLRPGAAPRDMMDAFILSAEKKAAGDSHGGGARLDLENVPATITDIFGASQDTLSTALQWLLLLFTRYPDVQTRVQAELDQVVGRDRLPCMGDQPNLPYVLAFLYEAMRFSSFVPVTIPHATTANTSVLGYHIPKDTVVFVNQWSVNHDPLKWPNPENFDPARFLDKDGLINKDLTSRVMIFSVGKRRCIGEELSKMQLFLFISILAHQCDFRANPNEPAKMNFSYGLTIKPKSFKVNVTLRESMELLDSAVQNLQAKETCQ
# Method Description: EROD assay in inducible CYP1B1 cell line
# Type: cell-based
# Test Context: Table 3; read-out: IC50 1B1
Task for the reader: assign each of the following compounds its reported IC50.

Entry N#CCOc1ccc(-c2nc(OCCCCCCN=[N+]=[N-])c3ccccc3n2)cc1 : reported IC50 = ?
< 2.5 nM

Entry N#CCOc1ccc(-c2nc(OCCCNC(=O)OCCOCCOCCOC(=O)NC34CC5CC(CC(C5)C3)C4)c3ccccc3n2)cc1 : reported IC50 = ?
< 2.5 nM

Entry N#CCOc1ccc(-c2nc(OCCCCCCBr)c3ccccc3n2)cc1 : reported IC50 = ?
< 2.5 nM

Entry Cn1c(-c2ccc3ccccc3n2)nc2ccccc2c1=O : reported IC50 = ?
> 1000 nM

Entry N#CCOc1ccc(-c2nc(OCC#N)c3ccccc3n2)cc1 : reported IC50 = ?
< 0.25 nM

Provide reported IC50 for each item, in the same order as listed.
1. COc1nc(-c2ccc(OCC#N)cc2)nc2ccccc12
2. CC(C)(C)OC(=O)NCCCOc1nc(-c2ccc(OCC#N)cc2)nc2ccccc12

< 0.7 nM
< 2.5 nM

----------
# Target Or System: CYP1B1 (Homo sapiens, UniProt Q16678)
# Construct: expressed in transfected cells
# Sequence (Q16678 1-543): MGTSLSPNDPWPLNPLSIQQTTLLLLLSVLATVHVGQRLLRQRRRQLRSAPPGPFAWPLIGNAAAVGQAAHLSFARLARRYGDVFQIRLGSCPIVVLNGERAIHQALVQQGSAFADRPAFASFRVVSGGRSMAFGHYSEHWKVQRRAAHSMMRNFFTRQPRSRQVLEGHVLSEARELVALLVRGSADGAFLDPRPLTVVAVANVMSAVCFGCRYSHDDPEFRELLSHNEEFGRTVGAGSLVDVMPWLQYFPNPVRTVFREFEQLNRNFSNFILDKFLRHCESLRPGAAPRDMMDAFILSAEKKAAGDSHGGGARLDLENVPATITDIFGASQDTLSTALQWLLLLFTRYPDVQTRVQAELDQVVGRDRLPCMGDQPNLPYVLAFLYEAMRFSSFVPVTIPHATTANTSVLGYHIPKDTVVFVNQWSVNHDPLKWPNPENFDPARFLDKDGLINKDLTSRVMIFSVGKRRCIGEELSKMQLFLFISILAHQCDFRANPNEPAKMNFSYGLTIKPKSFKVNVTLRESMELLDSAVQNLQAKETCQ
# Method Description: EROD assay in inducible CYP1B1 cell line
# Assay type: cell-based
# Test Context: Table 3; read-out: IC50 1B1
Observable: pIC50
Answers are plain numbers, as −log10 of the molar value.

Entry [N-]=[N+]=NCCCOc1ccc(-c2nc3ccccc3c(=O)[nH]2)cc1 : reported pIC50 = ?
8.21

Entry C#CCOc1ccc(-c2nc3ccc(I)cc3c(=O)[nH]2)cc1 : reported pIC50 = ?
7.85

Entry COc1cc(/C=C/c2cnccn2)cc(OC)c1 : reported pIC50 = ?
6.18

Further cases:
Entry COc1ccc(-c2nc(O)c3ccccc3n2)c(OC)c1 : reported pIC50 = ?
7.94

----------
Task for the reader: assign each of the following compounds its reported IC50.
# Target Or System: pooled human liver microsomes (pHLMs) (Homo sapiens)
# Method Description: EROD counterscreen in pooled human liver microsomes
# Format: biochemical
# Set-up: IC50 pHLM; EROD assay
# Test Context: human, microsomes, Table 2; EROD assay

Provide reported IC50 for each item, in the same order as listed.
1. Oc1ccc(-c2csc(-c3cccnc3)n2)cc1 [GL671]
2. COc1cc(OC)cc(-c2nc(-c3cccc(C(F)(F)F)c3)cs2)c1 [GL684]
3. COc1ccc(-c2nc(-c3ccc(F)c(C(F)(F)F)c3)cs2)c(OC)c1 [GL674]
4. COc1cc(OC)cc(-c2nc(-c3ccc(F)cc3)cs2)c1 [GL683]

1: 0.526 µM; 2: > 10 µM; 3: > 10 µM; 4: > 10 µM
